Biological target: hMC5-R (Homo sapiens, UniProt P33032)
Construct: expressed in transfected cells; host or cells: HEK-293
Sequence (P33032 whole entry): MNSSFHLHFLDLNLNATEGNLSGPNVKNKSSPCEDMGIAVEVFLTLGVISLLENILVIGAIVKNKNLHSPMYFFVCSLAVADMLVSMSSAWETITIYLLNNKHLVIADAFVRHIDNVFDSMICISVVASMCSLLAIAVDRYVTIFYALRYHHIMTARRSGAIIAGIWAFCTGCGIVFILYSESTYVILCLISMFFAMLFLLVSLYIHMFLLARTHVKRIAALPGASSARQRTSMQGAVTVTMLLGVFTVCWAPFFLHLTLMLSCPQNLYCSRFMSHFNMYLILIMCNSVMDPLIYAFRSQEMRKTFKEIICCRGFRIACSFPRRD
Assay: Competitive binding assay: inhibition of 125I-NDP-α-MSH binding to HEK-293 membranes with cloned human receptor subtype 5
Conditions: Table 6; 1 μM; mean of triplicate
Non-standard residues stand in square brackets, D forms with d. No end group written: not given here. *: point of attachment. Tiq = 1,2,3,4-tetrahydroisoquinoline-1-carboxylic acid; 1Nal = N[C@@H](Cc1cccc2ccccc12)C(=O)O; Hydrocinnamoyl = O=C(CCc1ccccc1)*; aThr = C[C@H](O)[C@H](N)C(=O)O
Reported endpoint: % Inhibition of Binding hMC5-R (%)
Write down the numeric answer in % and omit the unit.

Previously resolved entries follow.
Tic-D-Phe(2′-Cl)-Arg-Trp-Cys-NH2
59
Ac-Nle-Ala-His-D-Phe-Arg-D-Nal 2′-Cys-NH2
54
3′-Phenylpropionyl-His-D-Phe-Arg-Cys-Trp-NH2 (Hydrocinnamoyl-H[dF]RCW-NH2; not fully specified; printed as 3′-Phenylpropionyl-His-D-Phe-Arg-Cys-Trp-NH2)
50
Tiq-D-Phe-Arg-Trp-Cys-NH2 (Tiq-[dF]RWC-NH2; also: metal complex)
55
allo-Thr-D-Phe-Arg-Cys-Trp-NH2 ([aThr][dF]RCW-NH2; also: metal complex)
31
Nal 1′-D-Phe-Arg-Trp-Cys-NH2 ([1Nal][dF]RWC-NH2; also: metal complex)
68
7-amino-haptanoyl-D-Igl-D-Phe-Arg-Cys-NH2
32

Moving on to another substance below.
Value wanted: % Inhibition of Binding hMC5-R (hMC5-R (Homo sapiens, UniProt P33032)) of entry 3′-Br Phenyl acetyl-Arg-Arg-D-Bip-Cys-Bip-NH2 92

====

Parameter: % Inhibition of Binding MC1-R. Scope: all listed entries.
Target: MC1-R (Mus musculus, UniProt Q01727)
Construct: MC1-R membranes were isolated from B16—F10 mouse melanoma cells; endogenous in cells; host or cells: B16-F10 mouse melanoma cells
Sequence (Q01727 whole entry): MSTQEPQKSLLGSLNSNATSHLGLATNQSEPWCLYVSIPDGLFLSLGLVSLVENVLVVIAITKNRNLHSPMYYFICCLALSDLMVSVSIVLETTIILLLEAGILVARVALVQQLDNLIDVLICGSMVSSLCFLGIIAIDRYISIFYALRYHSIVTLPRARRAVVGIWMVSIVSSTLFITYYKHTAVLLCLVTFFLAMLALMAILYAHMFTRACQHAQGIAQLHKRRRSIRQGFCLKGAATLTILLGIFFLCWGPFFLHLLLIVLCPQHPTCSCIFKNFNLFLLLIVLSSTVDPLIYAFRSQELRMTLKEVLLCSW
Experiment: Competitive binding assay: inhibition of 125I-NDP-α-MSH binding to membranes from B16-F10 mouse melanoma cells
Conditions: Table 6; 1 μM; mean of triplicate
Non-standard residues stand in square brackets, D forms with d. No end group written: not given here. 1Nal = N[C@@H](Cc1cccc2ccccc12)C(=O)O; 4‑Amc = not defined here
Write down the numeric answer in % and omit the unit.

Previously resolved entries follow.
Ser(Bzl)-D-Phe-Arg-Trp-Cys-NH2 ({Ser(Bzl)}-[dF]RWC-NH2; also: metal complex)
27
Ac-Ala-His-D-Phe-Arg-Cys-Trp-NH2 ({Ac-Ala-H2N}-[dF]RCW-NH2; not fully specified; printed as Ac-Ala-His-D-Phe-Arg-Cys-Trp-NH2)
61
Allo-Thr-D-Phe-Arg-Trp-Cys-NH2
28

Value wanted: % Inhibition of Binding MC1-R (MC1-R (Mus musculus, UniProt Q01727)) of entry Nal 1′-D-Phe-Arg-Cys-Trp-NH2 ([1Nal][dF]RCW-NH2; also: metal complex) 0

And for D-Nal 1′-D-Phe-Arg-Trp-Cys-NH2 ? 3

And for 4-Amc-D-Phe-Arg-Trp-Cys-NH2 ({4‑Amc}-[dF]RWC-NH2; not fully specified; printed as 4-Amc-D-Phe-Arg-Trp-Cys-NH2; reading uncertain) ? 51

And for Heptanoyl-Ser(Bzl)-D-Phe(2′-Cl)-Lys-Phe-Cys-NH2 ? 20

And for Phe-Arg-Trp-Cys-Trp-NH2 (FRWCW-NH2; not fully specified; printed as Phe-Arg-Trp-Cys-Trp-NH2) ? 32

====

Molecular target: MC1-R (Mus musculus, UniProt Q01727)
Construct: MC1-R membranes were isolated from B16—F10 mouse melanoma cells; endogenous in cells; host or cells: B16-F10 mouse melanoma cells
Experiment: Competitive binding assay: inhibition of 125I-NDP-α-MSH binding to membranes from B16-F10 mouse melanoma cells
Settings: Table 6; 1 μM; mean of triplicate
Non-standard residues stand in square brackets, D forms with d. *: point of attachment. Phenylacetyl(4-Ph) = O=C(Cc1ccc(-c2ccccc2)cc1)*; Heptanoyl = CCCCCCC(=O)*
Parameter: % Inhibition of Binding MC1-R. Scope: all listed entries.
Write down the numeric answer in % and omit the unit.

Previously resolved entries follow.
4′-Biphenylacetyl-D-Phe-Arg-Cys-Trp-NH2 ({Phenylacetyl(4-Ph)}-[dF]RCW-NH2; not fully specified; printed as 4′-Biphenylacetyl-D-Phe-Arg-Cys-Trp-NH2)
1
Ac-Nle-Ala-His-D-Phe-Arg-Nal 1′-Cys-NH2
95
Heptanoyl-Ser(Bzl)-D-Phe(2′-Cl)-Lys-Phg-Cys-NH2
16
7-amino-haptanoyl-D-Igl-D-Phe-Arg-Cys-NH2
8
Heptanoyl-D-Phe-Arg-Trp-Cys-Lys-NH2 (Heptanoyl-[dF]RWCK-NH2; also: metallopeptide)
82

Fill in: % Inhibition of Binding MC1-R of Amc-D-Phe-Arg-Cys-Trp-NH2 is ___ 7

And for Tic-D-Phe(3′-Cl)-Arg-Trp-Cys-NH2 ? 18

And for Ac-Ala-Ala-Ala-D-Phe-Arg-Cys-Trp-NH2 (Ac-AAA[dF]RCW-NH2; not fully specified; printed as Ac-Ala-Ala-Ala-D-Phe-Arg-Cys-Trp-NH2) ? 5

====

Target: hMC2-R (Homo sapiens)
Construct: expressed in transfected cells; host or cells: HEK-293
Sequence (P41968 whole entry): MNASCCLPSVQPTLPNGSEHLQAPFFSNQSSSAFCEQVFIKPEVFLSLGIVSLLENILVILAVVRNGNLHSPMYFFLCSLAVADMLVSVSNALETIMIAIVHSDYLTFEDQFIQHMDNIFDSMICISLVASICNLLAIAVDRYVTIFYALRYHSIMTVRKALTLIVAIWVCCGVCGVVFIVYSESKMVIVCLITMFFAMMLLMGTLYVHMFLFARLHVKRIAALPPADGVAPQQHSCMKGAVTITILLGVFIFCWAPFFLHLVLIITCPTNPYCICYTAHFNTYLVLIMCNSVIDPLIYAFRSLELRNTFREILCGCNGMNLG
Assay: Competitive binding assay of additional compounds, Table 6 hMC2-R
Details: 1 μM, mean of triplicate
Non-standard residues stand in square brackets, D forms with d. No end group written: not given here. *: point of attachment. 1Nal = N[C@@H](Cc1cccc2ccccc12)C(=O)O; 2Nal = N[C@@H](Cc1ccc2ccccc2c1)C(=O)O; Desaminotyrosyl = O=C(CCc1ccc(O)cc1)*; dIgl = N[C@@H](C(=O)O)C1Cc2ccccc2C1; d(pGlu) = O=C1CC[C@H](C(=O)O)N1; code Z = not defined here; 4‑Amc = not defined here; Nle = CCCC[C@H](N)C(=O)O; Ac5c = NC1(C(=O)O)CCCC1; Ahp = NCCCCCCC(=O)O
Parameter: % Inhibition of Binding hMC2-R. Scope: all listed entries.
Write down the numeric answer in % and omit the unit.

Previously resolved entries follow.
3′-(4′-Hydroxyphenyl)propionyl-HiS-D-Phe-Arg-Cys-Trp-NH2 (Desaminotyrosyl-H[dF]RCW-NH2; not fully specified; printed as 3′-(4′-Hydroxyphenyl)propionyl-HiS-D-Phe-Arg-Cys-Trp-NH2)
0
3′-Br Phenyl acetyl-Arg-Arg-D-Bip-Cys-Trp-NH2
83
7-amino-Heptanoyl-D-Igl-D-Phe-Arg-Trp-Cys-NH2 ([Ahp][dIgl][dF]RWC-NH2; not fully specified; printed as 7-amino-Heptanoyl-D-Igl-D-Phe-Arg-Trp-Cys-NH2)
0
Nal 1′-D-Phe-Arg-Trp-Cys-NH2 ([1Nal][dF]RWC-NH2; also: metal complex)
3
Nal 2′-D-Phe-Arg-Trp-Cys-NH2 ([2Nal][dF]RWC-NH2; also: metal complex)
0
Z-D-Pyr-D-Phe-Arg-Trp-Cys-NH2 ({code Z}-[d(pGlu)][dF]RWC-NH2; reading uncertain; also: metal complex, printed as Z-D-Pyr-D-Phe-Arg-Trp-Cys-NH2)
16

Fill in: % Inhibition of Binding hMC2-R of 1-amino-1-cyclopentane carboxyl-D-Phe-Arg-Trp-Cys-NH2 ([Ac5c][dF]RWC-NH2; N-terminus assumed; SMILES N=C(N)NCCC[C@H](NC(=O)[C@@H](Cc1ccccc1)NC(=O)C1(N)CCCC1)C(=O)N[C@@H](Cc1c[nH]c2ccccc12)C(=O)N[C@@H](CS)C(N)=O) is ___ 7

And for Ac-Nle-Ala-His-D-Phe-Arg-His-Cys-NH2 ({Ac-Nle-Ala-H2N}-[dF]RHC-NH2; not fully specified; printed as Ac-Nle-Ala-His-D-Phe-Arg-His-Cys-NH2) ? 0

And for Hept-Ser(Bzl)-D-Phe(4′-Cl)-Arg-Trp-Cys-NH2 ? 85

And for D-Nal 1′-D-Phe-Arg-Cys-Trp-NH2 ? 0

And for D-Tiq-D-Phe-Arg-Cys-Trp-NH2 ? 3

And for 4-Amc-D-Phe-Arg-Trp-Cys-NH2 ({4‑Amc}-[dF]RWC-NH2; not fully specified; printed as 4-Amc-D-Phe-Arg-Trp-Cys-NH2; reading uncertain) ? 0

====

Parameter: % Inhibition of Binding MC1-R. Scope: all listed entries.
Target: MC1-R (Mus musculus)
Construct: MC1-R membranes were isolated from B16—F10 mouse melanoma cells; endogenous in cells; host or cells: B16-F10 mouse melanoma cells
Assay: Competitive binding assay: inhibition of 125I-NDP-α-MSH binding to membranes from B16-F10 mouse melanoma cells
Conditions: Table 6; 0.1 μM; mean of triplicate
Write down the numeric answer in % and omit the unit.

Heptanoyl-Ser(Bzl)-D-Phe(4′-Cl)-Arg-Phe-Cys-NH2
11
Heptanoyl-Ser(Bzl)-D-Phe(4′-Br)-Arg-Trp-Cys-NH2
21
Heptanoyl-Ser(Bzl)-D-Phe(4′-Cl)-Arg-Tyr-Cys-NH2
6
Ac-Nle-Arg-Arg-D-Nal 2′-Cys-Trp-Lys-NH2
95
NH2-(CH2)6-CO-Ser(Bzl)-D-Phe(4′-Cl)-Arg-Trp-Cys-NH2
28

Moving on to another substance below.
Fill in: % Inhibition of Binding MC1-R of Heptanoyl-Hphe-D-Phe(4′-Cl)-Arg-Trp-Cys-NH2 is ___ 45
